B1: LINE1-full (parent)
chain: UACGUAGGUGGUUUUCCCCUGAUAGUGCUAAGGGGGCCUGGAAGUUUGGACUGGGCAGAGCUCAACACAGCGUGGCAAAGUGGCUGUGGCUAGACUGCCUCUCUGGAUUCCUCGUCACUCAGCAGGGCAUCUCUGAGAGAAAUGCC

variants of: B1; assay: self-cleavage, relative activity (ratio to wild type); higher = more cleavage; in vitro, sequencing; the parent is a self-cleaving ribozyme
Outcome: true (1) for self-cleavage of at least 0.3; false (0) for anything lower.

Kindly determine if self-cleavage recorded for U13C U132C is above or exactly 0.3. true (1)

State whether the measured self-cleavage reaches 0.3, counting equality as reaching it, for U39C C71U true (1)

Hi, just wondering whether U26A U47C shows self-cleavage of 0.3 or higher. true (1)

Kindly determine if self-cleavage recorded for U100A A136C is above or exactly 0.3. true (1)

self-cleavage >= 0.3 for U87C C98U ? false (0)

Test whether the variant U9C U134A records self-cleavage of 0.3 or higher. true (1)

Determine whether measured self-cleavage meets or exceeds 0.3 for A78C U119C true (1)

hey, is self-cleavage for this one >= 0.3? A30G A64C true (1)

Record U26A U85A ; criterion: self-cleavage no lower than 0.3. Met? false (0)

Is self-cleavage for C18U U73C at or above 0.3? true (1)

Threshold query (self-cleavage >= 0.3) on U73A A79G true (1)
